Molecular target: UniProtKB P55859
Experiment: biochemical
Description: Inhibitory activity against calf spleen purine nucleoside phosphorylase (PNP) using inosine as substrate at a concentration of 10 uM.
Bucketed by reported Ki, buckets being low (below 20 nM), moderate (20 nM to below 100 nM), high (100 nM or more)

Use the examples below as a reference point.
>  <molecule>
Nc1nc(O)c2[nH]c(N)c(CC3CCCCC3)c2n1

>  <studyTarget>
UniProtKB P55859

>  <qualitativeLabel>
high

$$$$
>  <molecule>
CC1CCCC(Cc2c[nH]c3c(=O)[nH]c(N)nc23)C1 (stereo unspecified)

>  <studyTarget>
UniProtKB P55859

>  <qualitativeLabel>
low

$$$$
>  <molecule>
Nc1nc2c(Cc3cccc(Cl)c3)c[nH]c2c(=O)[nH]1

>  <studyTarget>
UniProtKB P55859

>  <qualitativeLabel>
low

$$$$
>  <molecule>
Nc1nc(O)c2[nH]cc(Cc3ccsc3)c2n1

>  <studyTarget>
UniProtKB P55859

>  <qualitativeLabel>
low

$$$$
>  <molecule>
Nc1nc(O)c2[nH]cc(Cc3ccc(O)cc3)c2n1

>  <studyTarget>
UniProtKB P55859

>  <qualitativeLabel>
high

$$$$

(Q) In plain terms, what class is Nc1nc(O)c2[nH]cc(C(CC(=O)O)c3ccccc3)c2n1 (stereo unspecified) ?
(A) low

(Q) In plain terms, what class is `Nc1nc2c(CC3CCCC3)c[nH]c2c(=O)[nH]1` ?
(A) low

###

Biological target: Purine nucleoside phosphorylase (Bos taurus)
Sequence (P55859 whole entry): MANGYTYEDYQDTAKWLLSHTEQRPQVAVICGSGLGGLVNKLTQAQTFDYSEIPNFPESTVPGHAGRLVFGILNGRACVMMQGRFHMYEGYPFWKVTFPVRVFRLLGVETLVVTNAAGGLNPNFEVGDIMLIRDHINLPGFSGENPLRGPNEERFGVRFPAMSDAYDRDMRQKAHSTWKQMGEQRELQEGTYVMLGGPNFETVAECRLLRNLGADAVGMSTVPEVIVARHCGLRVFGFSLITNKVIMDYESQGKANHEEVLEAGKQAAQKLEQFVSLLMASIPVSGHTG
Experiment: biochemical
Description: Inhibitory activity against calf spleen purine nucleoside phosphorylase (PNP) using 2-amino-6-mercapto-7-methyl purine ribonucleoside (MESG) as substrate.
measuredMetric: Ki (nM)
Give just the numeric value; nM need not be written.

(Q) Query Ki for `Nc1nc(O)c2nc(N)n(Cc3cccs3)c2n1`
(A) 20.7

###

Molecular target: UniProt:P55859
Assay: biochemical
Description: Inhibitory activity against calf spleen purine nucleoside phosphorylase (PNP) using inosine as substrate at a concentration of 10 uM.
Could you mark each record 1 if its IC50 falls strictly under 100 nM, and -1 if it equals or exceeds it?

Use the examples below as a reference point.
>  <compound>
Nc1nc2c(CC3CCCS3)c[nH]c2c(=O)[nH]1 (configuration not stated)

>  <studyTarget>
UniProt:P55859

>  <qualitativeLabel>
1

$$$$
>  <compound>
Nc1nc(O)c2[nH]cc(C3CCCCC3)c2n1

>  <studyTarget>
UniProt:P55859

>  <qualitativeLabel>
-1

$$$$
>  <compound>
Nc1nc2c(Cc3ccccn3)c[nH]c2c(=O)[nH]1

>  <studyTarget>
UniProt:P55859

>  <qualitativeLabel>
1

$$$$

(Q) # strict comparison: is reported IC50 < 100 nM? input = `Nc1nc2c(CC3CCCC3)c[nH]c2c(=O)[nH]1`
(A) 1

(Q) # strict comparison: is reported IC50 < 100 nM? input = Nc1nc(O)c2[nH]cc(C(CC(=O)O)c3ccccc3)c2n1 (configuration not stated)
(A) 1

(Q) # strict comparison: is reported IC50 < 100 nM? input = N#CCC(c1cccnc1)c1cnc2c(O)[nH]cnc1-2 (configuration not stated)
(A) 1

(Q) # strict comparison: is reported IC50 < 100 nM? input = `Nc1nc2c(Cc3ccncc3)c[nH]c2c(=O)[nH]1`
(A) 1

(Q) # strict comparison: is reported IC50 < 100 nM? input = CC1CCCC(Cc2c[nH]c3c(=O)[nH]c(N)nc23)C1 (configuration not stated)
(A) 1

###

Molecular target: Purine nucleoside phosphorylase (Bos taurus)
Experiment: biochemical
measuredMetric: pKi
Reminder that pKi is minus the log10 of a molar concentration.

Solved entries:
>  <molecule>
Nc1nc(O)c2[nH]c(N)c(CC3CCCCC3)c2n1

>  <studyTarget>
Purine nucleoside phosphorylase (Bos taurus)

>  <reading>
6.12

$$$$
>  <molecule>
Nc1nc2c(Cc3cnccc3Cl)c[nH]c2c(=O)[nH]1

>  <studyTarget>
Purine nucleoside phosphorylase (Bos taurus)

>  <reading>
7.45

$$$$
>  <molecule>
Nc1nc2c(CC3CCCS3)c[nH]c2c(=O)[nH]1 (configuration not stated)

>  <studyTarget>
Purine nucleoside phosphorylase (Bos taurus)

>  <reading>
8.22

$$$$
>  <molecule>
N#CCC(c1cccc(Cl)c1)c1c[nH]c2c(=O)[nH]c(N)nc12 (configuration not stated)

>  <studyTarget>
Purine nucleoside phosphorylase (Bos taurus)

>  <reading>
8.34

$$$$

(Q) Give Purine nucleoside phosphorylase (Bos taurus) pKi for the following molecule: `Nc1nc2c(Cc3ccc(OCc4ccccc4)cc3)c[nH]c2c(=O)[nH]1`
(A) 7.69

(Q) Give Purine nucleoside phosphorylase (Bos taurus) pKi for the following molecule: `Nc1nc2c(Cc3cccc(Cl)c3)c[nH]c2c(=O)[nH]1`
(A) 8.37

(Q) Give Purine nucleoside phosphorylase (Bos taurus) pKi for the following molecule: `Cc1nc2c(O)[nH]c(N)nc-2c1Cc1ccccc1`
(A) 4.17

(Q) Give Purine nucleoside phosphorylase (Bos taurus) pKi for the following molecule: `Nc1nc2c(CC3CCCC3)c[nH]c2c(=O)[nH]1`
(A) 8.21
